Origin of measurements: paper PMC12621043

Kindly supply the reported ΔTm at 10 µM values for the records listed here.
- target-entity: EPHA5A (Homo sapiens, UniProt P54756)
- Construct: purchased in-house DSF kinase panel (SGC-style construct names; the trailing letter is the construct ID)
- Sequence (P54756 653-939): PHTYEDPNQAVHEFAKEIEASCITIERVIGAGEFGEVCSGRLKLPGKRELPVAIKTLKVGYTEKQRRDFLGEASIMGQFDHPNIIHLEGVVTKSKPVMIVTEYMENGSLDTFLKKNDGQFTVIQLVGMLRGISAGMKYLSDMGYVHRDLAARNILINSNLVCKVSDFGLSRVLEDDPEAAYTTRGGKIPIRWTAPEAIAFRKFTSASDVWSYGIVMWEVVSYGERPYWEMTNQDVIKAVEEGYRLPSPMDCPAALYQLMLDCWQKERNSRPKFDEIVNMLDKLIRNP
- method-description: DSF Tm panel
- Type: binding
- experimental-context: 10 μM compound
- Protocol: The synthesized urea-based derivatives were evaluated in a panel of kinases by differential scanning fluorescence (DSF) to investigate their selectivity profile. […] This was also reflected in the overall low selectivity score (S) throughout the series, which is determined by the ratio between the number of kinases that are stabilized above 5 °C and the total number of kinases tested (Figure ). […]
Give the number; °C is assumed, so skip it.

(Q) Give EPHA5A (Homo sapiens, UniProt P54756) ΔTm at 10 µM for O=C(NCc1ccccc1Cl)Nc1ccc2cc1OCCOCCNc1ccn3ncc-2c3n1
(A) 0.1

(Q) Give EPHA5A (Homo sapiens, UniProt P54756) ΔTm at 10 µM for O=C(NCc1ccc(C(F)(F)F)cc1)Nc1ccc2cc1OCCOCCNc1ccn3ncc-2c3n1
(A) 1.9

(Q) Give EPHA5A (Homo sapiens, UniProt P54756) ΔTm at 10 µM for Cc1cc(Br)ccc1CNC(=O)Nc1ccc2cc1OCCOCCNc1ccn3ncc-2c3n1
(A) 1.4

(Q) Give EPHA5A (Homo sapiens, UniProt P54756) ΔTm at 10 µM for O=C(NCc1ccc(Cl)cc1F)Nc1ccc2cc1OCCOCCNc1ccn3ncc-2c3n1
(A) 0.7

(Q) Give EPHA5A (Homo sapiens, UniProt P54756) ΔTm at 10 µM for O=C(NCc1ccccc1C(F)(F)F)Nc1ccc2cc1OCCOCCNc1ccn3ncc-2c3n1
(A) 1.6

----------
- target-entity: BMX (BMXA) (Homo sapiens, UniProt P51813)
- Construct: purchased in-house DSF kinase panel (SGC-style construct names; the trailing letter is the construct ID)
- Sequence (P51813 411-675): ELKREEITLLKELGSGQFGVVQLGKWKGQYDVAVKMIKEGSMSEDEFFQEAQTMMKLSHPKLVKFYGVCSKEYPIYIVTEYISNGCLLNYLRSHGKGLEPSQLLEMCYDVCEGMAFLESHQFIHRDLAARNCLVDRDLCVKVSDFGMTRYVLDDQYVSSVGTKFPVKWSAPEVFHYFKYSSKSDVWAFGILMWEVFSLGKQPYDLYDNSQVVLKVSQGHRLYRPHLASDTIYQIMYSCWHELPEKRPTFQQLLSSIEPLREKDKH
- method-description: DSF Tm panel
- Assay type: binding
- experimental-context: 10 μM compound
- Method: The synthesized urea-based derivatives were evaluated in a panel of kinases by differential scanning fluorescence (DSF) to investigate their selectivity profile. […] This was also reflected in the overall low selectivity score (S) throughout the series, which is determined by the ratio between the number of kinases that are stabilized above 5 °C and the total number of kinases tested (Figure ). […]
parameter-measured: ΔTm at 10 µM (°C)
Give the number; °C is assumed, so skip it.

(Q) Give BMX (BMXA) (Homo sapiens, UniProt P51813) ΔTm at 10 µM for O=C(NCc1ccc(C(F)(F)F)cc1)Nc1ccc2cc1OCCOCCNc1ccn3ncc-2c3n1 [compound 28]
(A) 2.7

(Q) Give BMX (BMXA) (Homo sapiens, UniProt P51813) ΔTm at 10 µM for O=C(NCc1cccc(Cl)c1)Nc1ccc2cc1OCCOCCNc1ccn3ncc-2c3n1 [compound 18]
(A) 1.4

(Q) Give BMX (BMXA) (Homo sapiens, UniProt P51813) ΔTm at 10 µM for O=C(NCc1ccccc1)Nc1ccc2cc1OCCOCCNc1ccn3ncc-2c3n1 [compound 16]
(A) 1.7

(Q) Give BMX (BMXA) (Homo sapiens, UniProt P51813) ΔTm at 10 µM for COc1ccccc1CNC(=O)Nc1ccc2cc1OCCOCCNc1ccn3ncc-2c3n1 [compound 29]
(A) -0.1

(Q) Give BMX (BMXA) (Homo sapiens, UniProt P51813) ΔTm at 10 µM for COc1ccc(CNC(=O)Nc2ccc3cc2OCCOCCNc2ccn4ncc-3c4n2)cc1F [compound 32]
(A) 1.1

(Q) Give BMX (BMXA) (Homo sapiens, UniProt P51813) ΔTm at 10 µM for COc1ccc(CNC(=O)Nc2ccc3cc2OCCOCCNc2ccn4ncc-3c4n2)cc1 [compound 31]
(A) 1.4

(Q) Give BMX (BMXA) (Homo sapiens, UniProt P51813) ΔTm at 10 µM for O=C(NCc1ccc(Cl)cc1)Nc1ccc2cc1OCCOCCNc1ccn3ncc-2c3n1 [compound 19]
(A) 1.4

----------
Kindly supply the reported ΔTm at 10 µM values for the records listed here.
- target-entity: STK39A (Homo sapiens)
- Construct: purchased in-house DSF kinase panel (SGC-style construct names; the trailing letter is the construct ID)
- method-description: DSF Tm panel
- Assay type: binding
- experimental-context: 10 μM compound
Give the number; °C is assumed, so skip it.

(Q) Give STK39A (Homo sapiens) ΔTm at 10 µM for COc1cccc(CNC(=O)Nc2ccc3cc2OCCOCCNc2ccn4ncc-3c4n2)c1
(A) 1.2

(Q) Give STK39A (Homo sapiens) ΔTm at 10 µM for O=C(NCc1ccccc1C(F)(F)F)Nc1ccc2cc1OCCOCCNc1ccn3ncc-2c3n1
(A) 1.5

(Q) Give STK39A (Homo sapiens) ΔTm at 10 µM for O=C(NCc1ccc(Cl)cc1F)Nc1ccc2cc1OCCOCCNc1ccn3ncc-2c3n1
(A) 2.4

(Q) Give STK39A (Homo sapiens) ΔTm at 10 µM for O=C(NCc1cccc(Cl)c1)Nc1ccc2cc1OCCOCCNc1ccn3ncc-2c3n1
(A) 4

(Q) Give STK39A (Homo sapiens) ΔTm at 10 µM for O=C(NCc1ccc(Cl)cc1Cl)Nc1ccc2cc1OCCOCCNc1ccn3ncc-2c3n1
(A) 1.9

(Q) Give STK39A (Homo sapiens) ΔTm at 10 µM for COc1cc(CNC(=O)Nc2ccc3cc2OCCOCCNc2ccn4ncc-3c4n2)ccc1F
(A) 1.2

(Q) Give STK39A (Homo sapiens) ΔTm at 10 µM for C[C@H](NC(=O)Nc1ccc2cc1OCCOCCNc1ccn3ncc-2c3n1)c1ccccc1
(A) 1

(Q) Give STK39A (Homo sapiens) ΔTm at 10 µM for Cc1ccc(F)cc1CNC(=O)Nc1ccc2cc1OCCOCCNc1ccn3ncc-2c3n1
(A) 0.9

(Q) Give STK39A (Homo sapiens) ΔTm at 10 µM for O=C(NCc1ccccc1)Nc1ccc2cc1OCCOCCNc1ccn3ncc-2c3n1
(A) 3

(Q) Give STK39A (Homo sapiens) ΔTm at 10 µM for O=C(NCc1ccc(C(F)(F)F)cc1)Nc1ccc2cc1OCCOCCNc1ccn3ncc-2c3n1
(A) 1.3

----------
- target-entity: CAMK4A (Homo sapiens, UniProt Q16566)
- Construct: purchased in-house DSF kinase panel (SGC-style construct names; the trailing letter is the construct ID)
- Sequence (Q16566 whole entry): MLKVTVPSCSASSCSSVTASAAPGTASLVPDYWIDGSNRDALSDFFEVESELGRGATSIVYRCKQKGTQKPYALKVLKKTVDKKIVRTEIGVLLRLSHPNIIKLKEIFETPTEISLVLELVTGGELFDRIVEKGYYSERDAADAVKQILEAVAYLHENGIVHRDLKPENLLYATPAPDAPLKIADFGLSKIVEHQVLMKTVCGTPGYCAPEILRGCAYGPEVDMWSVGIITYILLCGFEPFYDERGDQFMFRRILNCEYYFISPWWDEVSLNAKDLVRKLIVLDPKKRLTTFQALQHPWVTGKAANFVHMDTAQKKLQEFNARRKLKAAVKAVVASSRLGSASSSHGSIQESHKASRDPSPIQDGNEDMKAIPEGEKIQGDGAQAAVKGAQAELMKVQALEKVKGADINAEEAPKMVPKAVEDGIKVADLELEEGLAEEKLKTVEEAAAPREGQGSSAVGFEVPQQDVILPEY
- method-description: DSF Tm panel
- Assay type: binding
- experimental-context: 10 μM compound
parameter-measured: ΔTm at 10 µM (°C)
Give the number; °C is assumed, so skip it.

(Q) Give CAMK4A (Homo sapiens, UniProt Q16566) ΔTm at 10 µM for Cc1ccc(F)cc1CNC(=O)Nc1ccc2cc1OCCOCCNc1ccn3ncc-2c3n1
(A) 0.8

(Q) Give CAMK4A (Homo sapiens, UniProt Q16566) ΔTm at 10 µM for COc1cccc(CNC(=O)Nc2ccc3cc2OCCOCCNc2ccn4ncc-3c4n2)c1
(A) 0.8

(Q) Give CAMK4A (Homo sapiens, UniProt Q16566) ΔTm at 10 µM for Cc1cc(Cl)ccc1CNC(=O)Nc1ccc2cc1OCCOCCNc1ccn3ncc-2c3n1
(A) 0.6

(Q) Give CAMK4A (Homo sapiens, UniProt Q16566) ΔTm at 10 µM for COc1ccc(CNC(=O)Nc2ccc3cc2OCCOCCNc2ccn4ncc-3c4n2)cc1F
(A) 0.9

(Q) Give CAMK4A (Homo sapiens, UniProt Q16566) ΔTm at 10 µM for Cc1cc(Br)ccc1CNC(=O)Nc1ccc2cc1OCCOCCNc1ccn3ncc-2c3n1
(A) 0.8

----------
- target-entity: MAP2K4A (Homo sapiens, UniProt P45985)
- Construct: purchased in-house DSF kinase panel (SGC-style construct names; the trailing letter is the construct ID)
- Sequence (P45985 102-367): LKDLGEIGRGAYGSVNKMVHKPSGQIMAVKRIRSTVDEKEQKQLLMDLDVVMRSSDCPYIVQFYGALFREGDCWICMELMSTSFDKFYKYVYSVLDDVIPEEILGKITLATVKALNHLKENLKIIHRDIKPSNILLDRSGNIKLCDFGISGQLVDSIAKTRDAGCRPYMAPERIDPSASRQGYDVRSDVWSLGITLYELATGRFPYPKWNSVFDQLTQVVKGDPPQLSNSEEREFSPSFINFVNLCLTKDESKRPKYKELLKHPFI
- method-description: DSF Tm panel
- Format: binding
- experimental-context: 10 μM compound
parameter-measured: ΔTm at 10 µM (°C)
Give the number; °C is assumed, so skip it.

(Q) Give MAP2K4A (Homo sapiens, UniProt P45985) ΔTm at 10 µM for O=C(NCc1ccccc1Cl)Nc1ccc2cc1OCCOCCNc1ccn3ncc-2c3n1
(A) 5

(Q) Give MAP2K4A (Homo sapiens, UniProt P45985) ΔTm at 10 µM for Cc1ccc(F)cc1CNC(=O)Nc1ccc2cc1OCCOCCNc1ccn3ncc-2c3n1
(A) 3.2

(Q) Give MAP2K4A (Homo sapiens, UniProt P45985) ΔTm at 10 µM for COc1cc(CNC(=O)Nc2ccc3cc2OCCOCCNc2ccn4ncc-3c4n2)ccc1F
(A) 3.6

(Q) Give MAP2K4A (Homo sapiens, UniProt P45985) ΔTm at 10 µM for O=C(NCc1ccc(Cl)cc1Cl)Nc1ccc2cc1OCCOCCNc1ccn3ncc-2c3n1
(A) 3.9

(Q) Give MAP2K4A (Homo sapiens, UniProt P45985) ΔTm at 10 µM for COc1cccc(CNC(=O)Nc2ccc3cc2OCCOCCNc2ccn4ncc-3c4n2)c1
(A) 3.2

(Q) Give MAP2K4A (Homo sapiens, UniProt P45985) ΔTm at 10 µM for COc1ccc(CNC(=O)Nc2ccc3cc2OCCOCCNc2ccn4ncc-3c4n2)cc1F
(A) 4

(Q) Give MAP2K4A (Homo sapiens, UniProt P45985) ΔTm at 10 µM for Cc1cc(Br)ccc1CNC(=O)Nc1ccc2cc1OCCOCCNc1ccn3ncc-2c3n1
(A) 3.2

(Q) Give MAP2K4A (Homo sapiens, UniProt P45985) ΔTm at 10 µM for O=C(NCc1ccc(Cl)cc1F)Nc1ccc2cc1OCCOCCNc1ccn3ncc-2c3n1
(A) 5.4

(Q) Give MAP2K4A (Homo sapiens, UniProt P45985) ΔTm at 10 µM for Cc1cc(Cl)ccc1CNC(=O)Nc1ccc2cc1OCCOCCNc1ccn3ncc-2c3n1
(A) 4.8

(Q) Give MAP2K4A (Homo sapiens, UniProt P45985) ΔTm at 10 µM for C[C@H](NC(=O)Nc1ccc2cc1OCCOCCNc1ccn3ncc-2c3n1)c1ccccc1
(A) 3.3

(Q) Give MAP2K4A (Homo sapiens, UniProt P45985) ΔTm at 10 µM for CN1CCN(C(=O)Nc2ccc3cc2OCCOCCNc2ccn4ncc-3c4n2)CC1
(A) 1.8

(Q) Give MAP2K4A (Homo sapiens, UniProt P45985) ΔTm at 10 µM for O=C(NCc1ccc(C(F)(F)F)cc1)Nc1ccc2cc1OCCOCCNc1ccn3ncc-2c3n1
(A) 5

(Q) Give MAP2K4A (Homo sapiens, UniProt P45985) ΔTm at 10 µM for O=C(NCc1ccc(Cl)cc1)Nc1ccc2cc1OCCOCCNc1ccn3ncc-2c3n1
(A) 5.7

(Q) Give MAP2K4A (Homo sapiens, UniProt P45985) ΔTm at 10 µM for O=C(NCc1cccc(Cl)c1)Nc1ccc2cc1OCCOCCNc1ccn3ncc-2c3n1
(A) 4.1

(Q) Give MAP2K4A (Homo sapiens, UniProt P45985) ΔTm at 10 µM for O=C(NCc1ccccc1)Nc1ccc2cc1OCCOCCNc1ccn3ncc-2c3n1
(A) 5.2
